Data origin: patent US8962631B2

inhibition at 15 µM by entry:
- subject_of_test: full-length ATR (Homo sapiens)
- Construct: Assays were carried out at 25° C. in the presence of 5 nM full-length ATR
- test_protocol: ATR Inhibition Assay (radioactive-phosphate incorporation)
- Type: biochemical
- experimental_conditions: at 15 uM compound; read-out: percent inhibition against ATR

smiles_structure=Cc1ccc2nc(-c3nc(C(=O)Nc4ccccc4)cnc3N)[nH]c2c1 subject_of_test="full-length ATR (Homo sapiens)" result="25 to 45%"
smiles_structure=Cc1ccc2nc(-c3nc(Oc4cccc(C#N)c4)cnc3N)[nH]c2c1 subject_of_test="full-length ATR (Homo sapiens)" result="15 to 24%"

inhibition at 15 µM for COC(=O)c1ccc(Oc2cnc(N)c(-c3nc4ccc(C)cc4[nH]3)n2)cc1 ?
10%

# iterate: Cc1ccc2nc(-c3nc(C(=O)NC4CCCC4)cnc3N)[nH]c2c1
15 to 24%

* * *

Ki by entry:
- subject_of_test: full-length ATR (Homo sapiens, UniProt Q13535)
- Construct: Assays were carried out at 25° C. in the presence of 5 nM full-length ATR
- Sequence (Q13535 whole entry): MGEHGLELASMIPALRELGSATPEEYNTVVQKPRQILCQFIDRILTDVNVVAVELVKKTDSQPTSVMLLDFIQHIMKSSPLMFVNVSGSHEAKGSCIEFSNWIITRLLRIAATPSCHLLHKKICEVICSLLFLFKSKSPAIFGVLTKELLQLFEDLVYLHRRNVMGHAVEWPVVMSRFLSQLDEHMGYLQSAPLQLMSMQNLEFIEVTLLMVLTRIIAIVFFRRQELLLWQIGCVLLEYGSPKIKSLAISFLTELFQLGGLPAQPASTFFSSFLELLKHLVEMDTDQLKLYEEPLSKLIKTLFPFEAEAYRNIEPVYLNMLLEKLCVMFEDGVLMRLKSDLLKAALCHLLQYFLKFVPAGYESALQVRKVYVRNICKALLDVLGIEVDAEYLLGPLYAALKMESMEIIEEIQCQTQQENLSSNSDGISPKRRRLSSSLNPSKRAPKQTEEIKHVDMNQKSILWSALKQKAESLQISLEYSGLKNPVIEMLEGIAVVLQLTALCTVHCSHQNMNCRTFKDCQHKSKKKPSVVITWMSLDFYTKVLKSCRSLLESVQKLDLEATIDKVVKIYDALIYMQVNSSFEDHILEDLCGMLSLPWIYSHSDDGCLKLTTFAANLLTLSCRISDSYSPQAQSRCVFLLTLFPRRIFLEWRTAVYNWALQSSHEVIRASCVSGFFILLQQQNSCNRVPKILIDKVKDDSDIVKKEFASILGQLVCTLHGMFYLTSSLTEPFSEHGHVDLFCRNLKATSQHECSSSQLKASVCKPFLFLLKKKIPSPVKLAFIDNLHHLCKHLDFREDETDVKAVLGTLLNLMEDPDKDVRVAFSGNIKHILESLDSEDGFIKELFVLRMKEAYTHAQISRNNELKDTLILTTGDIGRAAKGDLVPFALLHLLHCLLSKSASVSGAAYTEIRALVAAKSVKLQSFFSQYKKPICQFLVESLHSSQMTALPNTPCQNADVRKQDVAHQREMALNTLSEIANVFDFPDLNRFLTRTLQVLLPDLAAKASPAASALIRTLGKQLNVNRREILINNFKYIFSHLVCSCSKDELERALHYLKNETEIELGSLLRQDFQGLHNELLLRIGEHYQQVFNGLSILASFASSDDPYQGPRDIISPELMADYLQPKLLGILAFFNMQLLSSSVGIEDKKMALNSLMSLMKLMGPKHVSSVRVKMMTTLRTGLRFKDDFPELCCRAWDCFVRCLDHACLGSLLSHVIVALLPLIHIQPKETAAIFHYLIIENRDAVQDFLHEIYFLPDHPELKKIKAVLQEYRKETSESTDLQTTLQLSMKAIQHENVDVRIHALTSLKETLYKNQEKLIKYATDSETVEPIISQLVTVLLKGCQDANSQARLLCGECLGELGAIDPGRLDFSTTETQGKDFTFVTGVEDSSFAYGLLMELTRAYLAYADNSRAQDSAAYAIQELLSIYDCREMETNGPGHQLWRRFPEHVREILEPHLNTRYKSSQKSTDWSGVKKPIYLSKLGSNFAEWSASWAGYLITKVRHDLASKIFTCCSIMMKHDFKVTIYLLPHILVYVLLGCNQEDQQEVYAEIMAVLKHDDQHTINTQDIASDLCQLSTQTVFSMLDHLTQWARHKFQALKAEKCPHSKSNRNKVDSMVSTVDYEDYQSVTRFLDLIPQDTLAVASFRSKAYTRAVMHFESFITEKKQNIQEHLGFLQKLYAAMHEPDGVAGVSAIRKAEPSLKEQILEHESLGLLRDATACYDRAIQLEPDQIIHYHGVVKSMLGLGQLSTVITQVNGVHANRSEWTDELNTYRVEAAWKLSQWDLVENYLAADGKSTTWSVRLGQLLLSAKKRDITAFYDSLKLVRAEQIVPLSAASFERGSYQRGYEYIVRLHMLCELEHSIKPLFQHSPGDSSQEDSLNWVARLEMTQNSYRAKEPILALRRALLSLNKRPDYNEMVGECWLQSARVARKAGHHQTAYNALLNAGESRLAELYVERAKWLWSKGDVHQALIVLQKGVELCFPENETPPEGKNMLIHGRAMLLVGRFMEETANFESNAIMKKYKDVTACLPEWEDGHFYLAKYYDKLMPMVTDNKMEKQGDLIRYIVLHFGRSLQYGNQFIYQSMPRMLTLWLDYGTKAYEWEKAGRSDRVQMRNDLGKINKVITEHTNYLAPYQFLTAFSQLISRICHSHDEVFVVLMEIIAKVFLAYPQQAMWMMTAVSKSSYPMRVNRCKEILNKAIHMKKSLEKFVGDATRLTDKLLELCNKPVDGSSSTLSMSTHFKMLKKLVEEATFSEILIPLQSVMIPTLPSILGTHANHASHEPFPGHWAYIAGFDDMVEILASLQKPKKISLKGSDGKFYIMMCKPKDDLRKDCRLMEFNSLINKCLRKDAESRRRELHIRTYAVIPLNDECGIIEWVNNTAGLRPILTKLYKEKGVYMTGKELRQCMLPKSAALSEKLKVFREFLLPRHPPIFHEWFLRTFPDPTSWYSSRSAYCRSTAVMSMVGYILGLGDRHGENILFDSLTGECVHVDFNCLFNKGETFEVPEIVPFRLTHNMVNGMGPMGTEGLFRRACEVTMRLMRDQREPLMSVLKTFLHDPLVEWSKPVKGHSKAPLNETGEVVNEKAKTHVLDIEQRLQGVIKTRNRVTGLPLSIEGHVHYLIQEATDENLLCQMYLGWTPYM
- test_protocol: ATR Inhibition Assay (radioactive-phosphate incorporation)
- experimental_conditions: Ki(app); 10 μM ATP, 800 μM target peptide, 5 nM full-length ATR, 25° C.

Example entries and their recorded answers appear below.
compound="Cc1ccc2nc(-c3nc(OC4CCCN(C)C4)cnc3N)[nH]c2c1 (centres unmarked) [II-33]" subject_of_test="full-length ATR (Homo sapiens, UniProt Q13535)" result="1000 to 8000 nM"
compound="Cc1ccc2nc(-c3nc(Oc4ccccc4C#N)cnc3N)[nH]c2c1 [II-20]" subject_of_test="full-length ATR (Homo sapiens, UniProt Q13535)" result="500 to 1000 nM"
compound="Cc1ccc2nc(-c3nc(C(=O)NCC(C)O)cnc3N)[nH]c2c1 (centres unmarked) [II-67]" subject_of_test="full-length ATR (Homo sapiens, UniProt Q13535)" result="1000 to 8000 nM"
compound="CC(C)Oc1cnc(N)c(-c2nc3ccccc3[nH]2)n1 [II-13]" subject_of_test="full-length ATR (Homo sapiens, UniProt Q13535)" result="1000 to 8000 nM"
compound="Cc1ccc2nc(-c3nc(C(=O)Nc4cccnc4)cnc3N)[nH]c2c1 [II-42]" subject_of_test="full-length ATR (Homo sapiens, UniProt Q13535)" result="500 to 1000 nM"

Query compound follows.
Ki for N#CCNC(=O)c1cnc(N)c(-c2nc3ccccc3[nH]2)n1 [II-75] ?
≤ 500 nM

* * *

- subject_of_test: full-length ATR (Homo sapiens, UniProt Q13535)
- Construct: Assays were carried out at 25° C. in the presence of 5 nM full-length ATR
- test_protocol: ATR Inhibition Assay (radioactive-phosphate incorporation)
- experimental_conditions: Ki(app); 10 μM ATP, 800 μM target peptide, 5 nM full-length ATR, 25° C.
Ki by entry:

molecule="Nc1ncc(Oc2ccccc2)nc1C(=O)Nc1ccccc1 [II-17]" subject_of_test="full-length ATR (Homo sapiens, UniProt Q13535)" observation_type=Ki result="0.5 to 1 µM"

Please tell me: Ki of COCCNC(=O)c1cnc(N)c(-c2nc3ccc(C)cc3[nH]2)n1 [II-71] , system full-length ATR (Homo sapiens, UniProt Q13535)?
1 to 8 µM

# iterate: Nc1ncc(C#CCO)nc1-c1nnc(-c2ccccc2)o1 [II-90]
1 to 8 µM

# iterate: CC(=O)Nc1cnc(N)c(-c2nc3ccccc3[nH]2)n1 [II-91]
≤ 0.5 µM

# iterate: CC(=O)Nc1ccc(Oc2cnc(N)c(-c3nc4ccc(C)cc4[nH]3)n2)cc1 [II-18]
1 to 8 µM
